Entries and their pKi values follow.
Target: σ2R/TMEM97 (Homo sapiens, UniProt Q5BJF2)
Sequence (Q5BJF2 whole entry, looked up): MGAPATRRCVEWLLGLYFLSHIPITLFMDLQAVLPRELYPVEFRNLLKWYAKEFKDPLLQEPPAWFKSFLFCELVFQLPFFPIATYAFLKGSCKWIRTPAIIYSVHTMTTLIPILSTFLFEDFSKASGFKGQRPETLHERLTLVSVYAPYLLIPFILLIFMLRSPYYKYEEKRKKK
pKi here is simply -log10 of the concentration when that concentration is written in mol/L.

Take a look at these entries with their results.
compound: CN1CCC(C(=O)N2CCC3CC2c2cc(-c4cccc(OC(F)(F)F)c4)ccc23)CC1 (stereo not shown)
study_system: σ2R/TMEM97 (Homo sapiens, UniProt Q5BJF2)
pKi: 7.52
--
compound: CS(=O)(=O)c1cccc(-c2ccc3c(c2)C2C[C@H]3CCN2C(=O)C2CCN(CCO)CC2)c1
study_system: σ2R/TMEM97 (Homo sapiens, UniProt Q5BJF2)
pKi: 6.56
--
compound: FC(F)(F)c1ccc(-c2ccc3c(c2)C2CC3CCCN2CC2CCCC2)cc1 (stereo not shown)
study_system: σ2R/TMEM97 (Homo sapiens, UniProt Q5BJF2)
pKi: 7.00
--
compound: CC(=O)N[C@H]1CC[C@H](N2CCC3CC2c2cc(-c4cccc(C(F)(F)F)c4)ccc23)CC1 (stereo partly shown)
study_system: σ2R/TMEM97 (Homo sapiens, UniProt Q5BJF2)
pKi: 8.39
--
compound: CN1CCC(C(=O)N2CCC3CC2c2cc(-c4cccc(C(F)(F)F)c4)ccc23)CC1 (stereo not shown)
study_system: σ2R/TMEM97 (Homo sapiens, UniProt Q5BJF2)
pKi: 8.64
--
compound: FC(F)(F)c1cccc(-c2ccc3c(c2)C2CC3CCN2)c1 (stereo not shown)
study_system: σ2R/TMEM97 (Homo sapiens, UniProt Q5BJF2)
pKi: 7.24

// O=C(C1CNC1)N1CCC2CC1c1cc(-c3cccc(C(F)(F)F)c3)ccc12 (stereo not shown) : pKi value = 7.80

The compound listed as Cc1ccc(-c2ccc3c(c2)C2CC3CCCN2C2CCCC2)cc1 (stereo not shown) has a reported pKi of 6.73

Per the records, this compound ( CC(C)N1CCCC2CC1c1cc(-c3ccc(C(F)(F)F)cc3)ccc12 (stereo not shown) ) has pKi equal to 7.06

Measured pKi of FC(F)(F)c1ccc(-c2ccc3c(c2)C2CC3CCN2C2CCCC2)cc1 (stereo not shown) : 7.08

* * *

// each record: one item and its Ki for σ2R/TMEM97 (Homo sapiens, UniProt Q5BJF2)
Give the value, in units of nM, as a plain number.

molecule: CS(=O)(=O)c1ccc(-c2ccc3c(c2)C2C[C@H]3CCN2CCCO)cc1
study_system: σ2R/TMEM97 (Homo sapiens, UniProt Q5BJF2)
Ki [nM]: 1180

molecule: CN(C)CCC(=O)N1CCC2CC1c1cc(-c3cccc(C(F)(F)F)c3)ccc12 (stereo not drawn)
study_system: σ2R/TMEM97 (Homo sapiens, UniProt Q5BJF2)
Ki [nM]: 8.7

molecule: O=C(C1CCN(CCCO)CC1)N1CC[C@@H]2CC1c1cc(-c3cccc(OC(F)(F)F)c3)ccc12
study_system: σ2R/TMEM97 (Homo sapiens, UniProt Q5BJF2)
Ki [nM]: 264

Field Ki (entry OCCCN1CC[C@@H]2CC1c1cc(-c3ccnc(F)c3)ccc12 ) reads 802

Ki for FC(F)(F)Oc1cccc(-c2ccc3c(c2)C2CC3CCN2C2CCCCC2)c1 (stereo not drawn) is 79

So for O=C(N1CCN(CCO)CC1)N1CCC2C[C@H]1c1cc(-c3ccc(C(F)(F)F)cc3)ccc12 , the logged Ki turned out to be 955

Entry under test: COCCN1CC(C(=O)N2CCC3C[C@H]2c2cc(-c4ccc(C(F)(F)F)cc4)ccc23)C1 . Its Ki was 17.6

Recorded Ki (molecule CN(CCO)CCC(=O)N1CCC2CC1c1cc(-c3cccc(C(F)(F)F)c3)ccc12 (stereo not drawn) ): 4.3

Recorded result, FC(F)(F)c1ccc(-c2ccc3c(c2)C2CC3CCCN2C2CCCCC2)cc1 (stereo not drawn) , Ki: 25
